MEASURED ATTRIBUTE: pIC50
Please keep in mind that pIC50 is minus log10 of the molar concentration; only the number is needed.

Hi! What's the reported pIC50 for O=C(Cc1cccc(C(F)(F)F)c1)Nc1ccc(C(=O)NO)cc1 [Ex. 09] on mouse HDAC-1 enzyme (Mus musculus)?
7.17

Hi! What's the reported pIC50 for O=C(Cc1ccc(-c2ccccc2)cc1)Nc1ccc(C(=O)NO)cc1 [Ex. 12] on mouse HDAC-1 enzyme (Mus musculus)?
8.15

Hi! What's the reported pIC50 for COc1cc(CC(=O)Nc2ccc(C(=O)NO)cc2)c([N+](=O)[O-])cc1OC [Ex. 17] on mouse HDAC-1 enzyme (Mus musculus)?
6.59

Hi! What's the reported pIC50 for COc1cc(CC(=O)Nc2ccc(C(=O)NO)cc2)cc(OC)c1OC [Ex. 07] on mouse HDAC-1 enzyme (Mus musculus)?
7.85

Hi! What's the reported pIC50 for O=C(CCc1ccccc1OC(=O)c1ccccc1)Nc1ccc(C(=O)NO)cc1 [Ex. 14] on mouse HDAC-1 enzyme (Mus musculus)?
6.97
